Provenance of the data: patent US20170037149A1

I'd appreciate it if you could supply median [+ligand]/median [w/o ligand]*100 values for the items below.
- assay.target: T1, human FLT3 (human, UniProt P36888 27-993)
- T1 construct: On transfected CHO cells, or on the FLT3 positive human AML cell lines EOL-1 / MV4-11 where the row says so; also called hu FLT3; full length human FLT3
- test.summary: FACS, scFv on CHO-human FLT3 pre-incubated with FLT3 ligand (competitor)

Please give the measured median [+ligand]/median [w/o ligand]*100 for this binder: FL-5 scFv (scFv, periplasmic prep) scFv: QVTLKESGPMLVKPTETLTLTCTFSGFSLRNARMGVSWIRQPPGKALEWLAHIFWNDEKSYSTSLKSRLTISKDTSKSQVVLTMTNMDPVDTATYYCARIPYYGSGSYNYGMDVWGQGTTVTVSSGGGGSGGGGSGGGGSDIQMTQSPSSLSASVGDRVTITCRASQGIRNDLGWYQQKPGKAPKRLIYAASSLQSGVPSRFSGSGSGTEFTLTISSLQPEDFATYYCLQHNTYPLTFGGGTKVDIK ≥ 75%

Please give the measured median [+ligand]/median [w/o ligand]*100 for this binder: FL-59 scFv (scFv, periplasmic prep) scFv: QVTLKESGPMLVKPTETLTLTCTVSGFSLRNVRMGVSWIRQPPGKALEWLAHIFSNDEKSYSTSLKSRLTISKDTSKSQVVLTLTNMDPVDTATYFCARMPEYSSGWSGAFDIWGQGTMVTVSSGGGGSGGGGSGGGGSDIQMTQSPSSLSASVGDRVTITCRASQDIRDDLGWYQQKPGNAPKRLIYGASTLQSGVPSRFSGSGSGTEFTLTISSLQPEDFATYYCLQHNSYPLTFGGGTRLEIK ≥ 75%
